// data source = the kinase profiling compilation of Christmann-Franck et al. (2016)

Biological target: UniProt Q9UHD2
Sequence (Q9UHD2 whole entry, looked up): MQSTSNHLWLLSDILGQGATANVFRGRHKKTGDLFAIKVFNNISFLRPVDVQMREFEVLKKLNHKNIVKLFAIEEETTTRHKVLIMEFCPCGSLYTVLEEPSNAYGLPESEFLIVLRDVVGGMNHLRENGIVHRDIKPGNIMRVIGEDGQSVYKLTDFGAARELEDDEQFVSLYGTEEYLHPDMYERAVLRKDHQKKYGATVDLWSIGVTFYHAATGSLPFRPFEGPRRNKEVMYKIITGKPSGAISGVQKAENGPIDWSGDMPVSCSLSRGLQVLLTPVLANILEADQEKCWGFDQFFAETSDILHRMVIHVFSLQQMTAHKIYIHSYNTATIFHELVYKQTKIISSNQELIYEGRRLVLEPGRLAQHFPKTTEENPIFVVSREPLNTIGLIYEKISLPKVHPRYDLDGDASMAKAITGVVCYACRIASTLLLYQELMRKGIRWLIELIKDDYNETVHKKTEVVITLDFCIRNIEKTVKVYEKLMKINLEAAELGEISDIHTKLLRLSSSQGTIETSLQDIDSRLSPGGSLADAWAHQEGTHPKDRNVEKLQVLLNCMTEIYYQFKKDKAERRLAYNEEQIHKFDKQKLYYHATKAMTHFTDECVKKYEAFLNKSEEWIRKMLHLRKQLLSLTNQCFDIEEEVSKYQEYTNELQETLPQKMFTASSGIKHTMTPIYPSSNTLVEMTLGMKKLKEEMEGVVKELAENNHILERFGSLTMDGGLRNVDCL
Test: KINOMEscan competition binding
Details: compound 10.0 µM
READOUT_TYPE: kinase still bound, per cent of control (%)
Numeric answer only, unit % assumed.

Provide the documented kinase still bound, per cent of control with UniProt Q9UHD2 as the system for COC(=O)Nc1ccc(-c2nc(N3CCOCC3)c3cnn(C4CCN(C(=O)OC)CC4)c3n2)cc1
99

Query kinase still bound, per cent of control on UniProt Q9UHD2 for CCC(=O)N1CCN(c2ccc(-n3c(=O)ccc4cnc5ccc(-c6cnc7ccccc7c6)cc5c43)cc2C(F)(F)F)CC1
93

Checklist item: kinase still bound, per cent of control tested on UniProt Q9UHD2, entry COc1ccc(-c2ccc3c(N4CCOCC4)nc(N4C[C@@H](C)O[C@@H](C)C4)nc3n2)cc1CO , value?
100

Field: kinase still bound, per cent of control (UniProt Q9UHD2). Entry: CC(C)n1nc(-c2cc3cc(O)ccc3[nH]2)c2c(N)ncnc21
84

====

Would you mind telling me the reported kinase still bound, per cent of control of each entry?
Molecular target: CDC42BPA (human)
Test: KINOMEscan competition binding
Conditions: compound 10.0 µM
// note: answer is a bare numeric in %

Reported kinase still bound, per cent of control for COC(=O)Nc1ccc(-c2nc(N3CCOCC3)c3cnn(C4CCN(C(=O)OC)CC4)c3n2)cc1 : what is it?
100

Look up kinase still bound, per cent of control for this molecule: COc1ccc(-c2ccc3c(N4CCOCC4)nc(N4C[C@@H](C)O[C@@H](C)C4)nc3n2)cc1CO
92

Record request: kinase still bound, per cent of control value, item CC(C)n1nc(-c2cc3cc(O)ccc3[nH]2)c2c(N)ncnc21
74

Please give the measured kinase still bound, per cent of control for this molecule: CCC(=O)N1CCN(c2ccc(-n3c(=O)ccc4cnc5ccc(-c6cnc7ccccc7c6)cc5c43)cc2C(F)(F)F)CC1
0.65

====

Exercise: state measured per cent of control for each of the compounds provided.
Target: CDKL5 (human)
Experiment: KINOMEscan competition binding
Conditions: compound 10.0 µM
Write your answer as a measured quantity: the number, then the unit.

Notebook entry, CDKL5 (human) assay: per cent of control of COC(=O)Nc1ccc(-c2nc(N3CCOCC3)c3cnn(C4CCN(C(=O)OC)CC4)c3n2)cc1 = ?
100%

Record lookup: for CDKL5 (human), what per cent of control belongs to COc1ccc(-c2ccc3c(N4CCOCC4)nc(N4C[C@@H](C)O[C@@H](C)C4)nc3n2)cc1CO ?
77%

Give CDKL5 (human) per cent of control for CCC(=O)N1CCN(c2ccc(-n3c(=O)ccc4cnc5ccc(-c6cnc7ccccc7c6)cc5c43)cc2C(F)(F)F)CC1
100%

# get_value(readout= per cent of control, system= CDKL5 (human)) for CC(C)n1nc(-c2cc3cc(O)ccc3[nH]2)c2c(N)ncnc21
100%

====

Target: PHKG1 (human)
Conditions: compound 10.0 µM
READOUT_TYPE: per cent of control (%)
Only the number, expressed in %, is required.

Could you tell me which per cent of control is on file for CC(C)n1nc(-c2cc3cc(O)ccc3[nH]2)c2c(N)ncnc21 ?
25

Given the compound CCC(=O)N1CCN(c2ccc(-n3c(=O)ccc4cnc5ccc(-c6cnc7ccccc7c6)cc5c43)cc2C(F)(F)F)CC1 , what is its reported per cent of control?
99

Value lookup for per cent of control; key = COc1ccc(-c2ccc3c(N4CCOCC4)nc(N4C[C@@H](C)O[C@@H](C)C4)nc3n2)cc1CO
116

Please look up its per cent of control: COC(=O)Nc1ccc(-c2nc(N3CCOCC3)c3cnn(C4CCN(C(=O)OC)CC4)c3n2)cc1
93

====

Kindly supply the reported kinase still bound, per cent of control values for the records listed here.
Biological target: DSTYK (human) (UniProt Q6XUX3)
Sequence (Q6XUX3 whole entry, looked up): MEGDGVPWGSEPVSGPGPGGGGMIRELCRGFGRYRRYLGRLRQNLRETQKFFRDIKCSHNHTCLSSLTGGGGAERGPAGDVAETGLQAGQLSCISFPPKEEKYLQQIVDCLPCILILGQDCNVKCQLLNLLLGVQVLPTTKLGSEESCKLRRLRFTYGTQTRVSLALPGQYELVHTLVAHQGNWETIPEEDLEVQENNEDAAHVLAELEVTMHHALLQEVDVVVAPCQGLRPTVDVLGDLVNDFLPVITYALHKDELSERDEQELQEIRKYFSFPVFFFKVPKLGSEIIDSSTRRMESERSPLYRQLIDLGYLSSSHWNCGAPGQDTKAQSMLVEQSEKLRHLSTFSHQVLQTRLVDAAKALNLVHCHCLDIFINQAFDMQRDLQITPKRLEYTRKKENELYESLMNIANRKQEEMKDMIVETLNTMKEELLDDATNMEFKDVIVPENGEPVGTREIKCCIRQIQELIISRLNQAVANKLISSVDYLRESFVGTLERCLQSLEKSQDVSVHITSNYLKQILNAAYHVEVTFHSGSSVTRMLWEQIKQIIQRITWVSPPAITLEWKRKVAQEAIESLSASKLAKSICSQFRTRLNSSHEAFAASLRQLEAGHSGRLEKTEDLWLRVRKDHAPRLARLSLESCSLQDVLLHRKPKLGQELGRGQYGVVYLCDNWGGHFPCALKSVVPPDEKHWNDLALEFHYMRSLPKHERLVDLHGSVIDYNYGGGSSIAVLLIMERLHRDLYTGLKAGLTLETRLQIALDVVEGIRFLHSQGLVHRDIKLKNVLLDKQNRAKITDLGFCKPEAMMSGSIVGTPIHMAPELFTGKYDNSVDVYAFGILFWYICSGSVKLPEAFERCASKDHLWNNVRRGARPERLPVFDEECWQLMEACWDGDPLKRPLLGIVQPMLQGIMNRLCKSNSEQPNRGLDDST
Test: KINOMEscan competition binding
Conditions: compound 10.0 µM
Reply with just the number (in %).

API: value(readout=kinase still bound, per cent of control, system=DSTYK (human) (UniProt Q6XUX3)) for record COC(=O)Nc1ccc(-c2nc(N3CCOCC3)c3cnn(C4CCN(C(=O)OC)CC4)c3n2)cc1
100

Record COc1ccc(-c2ccc3c(N4CCOCC4)nc(N4C[C@@H](C)O[C@@H](C)C4)nc3n2)cc1CO : what is its kinase still bound, per cent of control with DSTYK (human) (UniProt Q6XUX3)?
78

# get_value(readout= kinase still bound, per cent of control, system= DSTYK (human) (UniProt Q6XUX3)) for CC(C)n1nc(-c2cc3cc(O)ccc3[nH]2)c2c(N)ncnc21
5.8

Can you look up kinase still bound, per cent of control on DSTYK (human) (UniProt Q6XUX3) for CCC(=O)N1CCN(c2ccc(-n3c(=O)ccc4cnc5ccc(-c6cnc7ccccc7c6)cc5c43)cc2C(F)(F)F)CC1 ?
28

====

Exercise: for every item that follows, state its recorded per cent of control.
Target: MAPK3 (human) (UniProt P27361)
Sequence (P27361 whole entry, looked up): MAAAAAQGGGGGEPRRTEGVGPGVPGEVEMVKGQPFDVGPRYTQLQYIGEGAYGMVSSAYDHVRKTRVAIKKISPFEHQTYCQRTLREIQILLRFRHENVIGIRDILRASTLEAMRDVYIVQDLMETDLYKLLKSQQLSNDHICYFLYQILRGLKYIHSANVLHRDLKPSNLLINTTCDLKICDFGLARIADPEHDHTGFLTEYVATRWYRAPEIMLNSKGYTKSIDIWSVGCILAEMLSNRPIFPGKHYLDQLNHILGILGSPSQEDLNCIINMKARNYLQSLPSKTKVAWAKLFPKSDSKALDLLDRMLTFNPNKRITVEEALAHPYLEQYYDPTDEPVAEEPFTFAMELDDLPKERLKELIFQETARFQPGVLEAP
Details: compound 10.0 µM

I am curious: what per cent of control value has been reported for COC(=O)Nc1ccc(-c2nc(N3CCOCC3)c3cnn(C4CCN(C(=O)OC)CC4)c3n2)cc1 ?
97%

Please give the measured per cent of control for this molecule: CCC(=O)N1CCN(c2ccc(-n3c(=O)ccc4cnc5ccc(-c6cnc7ccccc7c6)cc5c43)cc2C(F)(F)F)CC1
96%

I would be grateful if you could share the reported per cent of control for CC(C)n1nc(-c2cc3cc(O)ccc3[nH]2)c2c(N)ncnc21 .
81%

For COc1ccc(-c2ccc3c(N4CCOCC4)nc(N4C[C@@H](C)O[C@@H](C)C4)nc3n2)cc1CO , what is its reported per cent of control?
87%

====

What kinase still bound, per cent of control was measured for each of the following?
Biological target: SGK110 (human)
Assay: KINOMEscan competition binding
Settings: compound 10.0 µM
Numeric answer only, unit % assumed.

Can you look up the measured kinase still bound, per cent of control of CC(C)n1nc(-c2cc3cc(O)ccc3[nH]2)c2c(N)ncnc21 for me?
100

Using the record for CCC(=O)N1CCN(c2ccc(-n3c(=O)ccc4cnc5ccc(-c6cnc7ccccc7c6)cc5c43)cc2C(F)(F)F)CC1 , report its kinase still bound, per cent of control.
94

Would you mind telling me what kinase still bound, per cent of control value was observed for COc1ccc(-c2ccc3c(N4CCOCC4)nc(N4C[C@@H](C)O[C@@H](C)C4)nc3n2)cc1CO ?
98

Using the record for COC(=O)Nc1ccc(-c2nc(N3CCOCC3)c3cnn(C4CCN(C(=O)OC)CC4)c3n2)cc1 , report its kinase still bound, per cent of control.
92

====

Provide the reported kinase still bound, per cent of control of each item.
Target: BMPR1B (human)
Assay: KINOMEscan competition binding
Conditions: compound 10.0 µM
Note: unit % is implicit; provide only the numeric part.

Quick check: kinase still bound, per cent of control of COc1ccc(-c2ccc3c(N4CCOCC4)nc(N4C[C@@H](C)O[C@@H](C)C4)nc3n2)cc1CO ?
99

# lookup: kinase still bound, per cent of control of CCC(=O)N1CCN(c2ccc(-n3c(=O)ccc4cnc5ccc(-c6cnc7ccccc7c6)cc5c43)cc2C(F)(F)F)CC1
100

Using the record for COC(=O)Nc1ccc(-c2nc(N3CCOCC3)c3cnn(C4CCN(C(=O)OC)CC4)c3n2)cc1 , report its kinase still bound, per cent of control.
78

Can you look up the measured kinase still bound, per cent of control of CC(C)n1nc(-c2cc3cc(O)ccc3[nH]2)c2c(N)ncnc21 for me?
0.1

====

Target: UniProtKB P04626
Sequence (P04626 whole entry, looked up): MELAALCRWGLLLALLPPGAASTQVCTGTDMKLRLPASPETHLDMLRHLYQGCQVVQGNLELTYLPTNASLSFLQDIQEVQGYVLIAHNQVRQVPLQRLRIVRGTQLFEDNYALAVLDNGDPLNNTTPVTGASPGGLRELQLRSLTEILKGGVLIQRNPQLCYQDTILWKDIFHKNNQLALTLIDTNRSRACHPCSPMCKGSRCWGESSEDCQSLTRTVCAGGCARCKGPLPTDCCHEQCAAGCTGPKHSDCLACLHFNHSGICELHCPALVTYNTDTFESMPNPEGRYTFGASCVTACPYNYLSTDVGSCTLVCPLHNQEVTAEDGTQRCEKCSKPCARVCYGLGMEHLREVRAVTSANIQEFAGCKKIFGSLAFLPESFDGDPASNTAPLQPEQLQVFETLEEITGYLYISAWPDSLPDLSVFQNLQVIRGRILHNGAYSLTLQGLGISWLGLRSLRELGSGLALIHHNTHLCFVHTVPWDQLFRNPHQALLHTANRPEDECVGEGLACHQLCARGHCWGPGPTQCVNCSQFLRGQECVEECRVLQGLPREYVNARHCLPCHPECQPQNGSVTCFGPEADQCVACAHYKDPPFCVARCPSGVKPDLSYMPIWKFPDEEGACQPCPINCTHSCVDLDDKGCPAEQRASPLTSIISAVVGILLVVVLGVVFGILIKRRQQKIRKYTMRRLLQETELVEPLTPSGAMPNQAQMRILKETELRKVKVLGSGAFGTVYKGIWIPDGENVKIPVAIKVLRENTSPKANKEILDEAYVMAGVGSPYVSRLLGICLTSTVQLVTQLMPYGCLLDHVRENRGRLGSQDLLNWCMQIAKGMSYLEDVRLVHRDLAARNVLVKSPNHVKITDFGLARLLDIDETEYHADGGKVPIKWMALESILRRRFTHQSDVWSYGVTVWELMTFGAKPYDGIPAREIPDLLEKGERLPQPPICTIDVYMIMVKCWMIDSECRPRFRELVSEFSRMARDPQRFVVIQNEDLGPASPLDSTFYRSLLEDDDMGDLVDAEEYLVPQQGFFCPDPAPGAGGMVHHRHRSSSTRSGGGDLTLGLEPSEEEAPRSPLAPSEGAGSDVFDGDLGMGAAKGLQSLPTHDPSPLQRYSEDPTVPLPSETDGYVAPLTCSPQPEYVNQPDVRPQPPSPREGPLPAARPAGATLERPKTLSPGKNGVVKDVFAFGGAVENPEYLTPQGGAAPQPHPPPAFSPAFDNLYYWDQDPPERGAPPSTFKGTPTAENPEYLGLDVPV
Experiment: KINOMEscan competition binding
Conditions: compound 10.0 µM
READOUT_TYPE: kinase still bound, per cent of control
Show the value, then the unit it is measured in.

What value of kinase still bound, per cent of control on UniProtKB P04626 does CCC(=O)N1CCN(c2ccc(-n3c(=O)ccc4cnc5ccc(-c6cnc7ccccc7c6)cc5c43)cc2C(F)(F)F)CC1 have?
91%

Report kinase still bound, per cent of control for CC(C)n1nc(-c2cc3cc(O)ccc3[nH]2)c2c(N)ncnc21 tested on UniProtKB P04626.
29%

Find kinase still bound, per cent of control (UniProtKB P04626) for the entry COc1ccc(-c2ccc3c(N4CCOCC4)nc(N4C[C@@H](C)O[C@@H](C)C4)nc3n2)cc1CO
94%

Can you look up kinase still bound, per cent of control on UniProtKB P04626 for COC(=O)Nc1ccc(-c2nc(N3CCOCC3)c3cnn(C4CCN(C(=O)OC)CC4)c3n2)cc1 ?
100%

====

Molecular target: NEK6 (human)
Experiment: KINOMEscan competition binding
Conditions: compound 10.0 µM
READOUT_TYPE: kinase still bound, per cent of control (%)
I only need the number, in %, no unit after it.

Can you look up the measured kinase still bound, per cent of control of COC(=O)Nc1ccc(-c2nc(N3CCOCC3)c3cnn(C4CCN(C(=O)OC)CC4)c3n2)cc1 for me?
100

Would you mind telling me what kinase still bound, per cent of control value was observed for COc1ccc(-c2ccc3c(N4CCOCC4)nc(N4C[C@@H](C)O[C@@H](C)C4)nc3n2)cc1CO ?
96

Find the recorded kinase still bound, per cent of control belonging to CCC(=O)N1CCN(c2ccc(-n3c(=O)ccc4cnc5ccc(-c6cnc7ccccc7c6)cc5c43)cc2C(F)(F)F)CC1 and report it.
99

Consider the compound shown here: CC(C)n1nc(-c2cc3cc(O)ccc3[nH]2)c2c(N)ncnc21 What is its recorded kinase still bound, per cent of control?
100
